Molecular target: Cat L (UniProt P07711)
Experiment: Cathepsin enzyme inhibition assay (fluorogenic peptide substrate Z-Val-Val-Arg-AMC), Cathepsin L
Assay type: biochemical, human and mouse
Conditions: enzyme 1 nM, substrate 20 μM, pH 6.5; read-out: CatL IC50
value.kind: IC50 (µM)

Below: 3 compounds and their reported IC50.
INSERT INTO results (compound, test_value) VALUES
  ('N#CC1(NC(=O)[C@@H]2C[C@@H](S(=O)(=O)c3ccc(Cl)cc3Cl)CN2c2ccccc2[N+](=O)[O-])CC1 [Example 167]', 17.4),
  ('CC(C)(C)C(=O)N1C[C@H](S(=O)(=O)c2ccc(Cl)cc2Cl)C[C@H]1C(=O)NC1(C#N)CC1 [Example 225]', 18.3),
  ('N#CC1(NC(=O)[C@@H]2C[C@@H](S(=O)(=O)c3ccccc3Cl)CN2C(=O)C2CCCCC2)CC1 [Example 77]', 8.25);

a: CC(C)(C)N1CCN(c2ccc(S(=O)(=O)[C@@H]3C[C@@H](C(=O)NC4(C#N)CC4)N(C(=O)C4(c5ccc(Cl)nc5)CC4)C3)c(Cl)c2)CC1 [Example 371, Formic Acid]
b: Cc1cc(N2C[C@H](S(=O)(=O)c3ccc(F)cc3C(F)(F)F)C[C@H]2C(=O)NC2(C#N)CC2)n(C2CCOCC2)n1 [Example 396]
Query: Which value of IC50 is numerically greater: that of a or that of b ? I would appreciate it if you answered with the label of your choice.
Result: b

* * *

Molecular target: Cathepsin S (UniProt P25774)
Experiment: Cathepsin enzyme inhibition assay (fluorogenic peptide substrate Z-Val-Val-Arg-AMC), Cathepsin S
Assay type: biochemical, human and mouse
Settings: enzyme 1 nM, substrate 20 μM, pH 6.5; read-out: CatS IC50
value.kind: IC50 (nM)

Recorded results for 3 compounds are shown here.
INSERT INTO results (compound, test_value) VALUES
  ('CC(C)(C)OC(=O)N1C[C@H](S(=O)(=O)c2ccccc2Cl)C[C@H]1C(=O)NC1(C#N)CCCCC1 [Example 35]', 4100),
  ('N#CC1(NC(=O)[C@@H]2C[C@@H](S(=O)(=O)c3ccc(OCC(F)(F)F)cc3C(F)(F)F)CN2C(=O)C2(CO)CC2)CC1 [Example 451]', 0.758),
  ('Cn1nc(C(C)(C)C)cc1C(=O)N1C[C@H](S(=O)(=O)c2ccc(OCC(F)(F)F)cc2Cl)C[C@H]1C(=O)NC1(C#N)CC1 [Example 386]', 1.75);

A: N#CC1(NC(=O)[C@@H]2C[C@@H](S(=O)(=O)c3ccc(OC4COC4)cc3Cl)CN2C(=O)C2(C(F)(F)F)CC2)CC1 [Example 201]
B: Cc1cc(N2C[C@H](S(=O)(=O)c3ccccc3C(F)(F)F)C[C@H]2C(=O)NC2(C#N)CC2)n(-c2cccnn2)n1 [Example 317]
Query: Pick one: A or B . Which has the bigger IC50 number? Indicate which entry you chose by stating its label.
Result: B

* * *

Molecular target: Cathepsin S (UniProt P25774)
Experiment: Cathepsin enzyme inhibition assay (fluorogenic peptide substrate Z-Val-Val-Arg-AMC), Cathepsin S
Assay type: biochemical, human and mouse
Details: enzyme 1 nM, substrate 20 μM, pH 6.5; read-out: CatS IC50
value.kind: IC50 (nM)

INSERT INTO results (molecule, system_under_test, test_value) VALUES
  ('N#CC1(NC(=O)[C@@H]2C[C@@H](S(=O)(=O)c3ccc(F)cc3Cl)CN2C(=O)C2(C(F)(F)F)CC2)CC1 [Example 145]', 'Cathepsin S (UniProt P25774)', 0.6);

A: CC(Oc1ccc(S(=O)(=O)[C@@H]2C[C@@H](C(=O)NC3(C#N)CC3)N(C(=O)OC(C)(C)C)C2)c(Cl)c1)C(F)(F)F (stereo partly drawn) [Example 122]
B: Cc1cc(N2C[C@H](S(=O)(=O)c3ccccc3C(F)(F)F)C[C@H]2C(=O)NC2(C#N)CC2)n(C2CCNCC2)n1 [Example 407]
C: N#CC1(NC(=O)[C@@H]2C[C@@H](S(=O)(=O)c3ccc(N4CCC(C(F)(F)F)CC4)cc3Cl)CN2C(=O)C2(C(F)(F)F)CC2)CC1 [Example 156]
D: N#CC1(NC(=O)[C@@H]2C[C@@H](S(=O)(=O)c3ccc(OCC(F)(F)F)cc3Cl)CN2CC2(c3ccc(Cl)cc3)CC2)CC1 [Example 365]
E: N#CC1(NC(=O)[C@@H]2C[C@@H](S(=O)(=O)c3ccc(OCC(F)(F)F)cc3C(F)(F)F)CN2C(=O)C2(C(F)(F)F)CC2)CC1 [Example 237]
Query: Highest IC50 first, then in falling order down to the smallest. Labels, ranked as asked.
Result: D, B, A, C, E
